The measured values listed here are drawn from the supplement of paper PMC8007513.

- Tested on: Trichoderma virens ATCC 9645
- experiment_summary: growth yield (OD600) with compound + IPBC relative to untreated control; higher = less growth inhibition
- condition_notes: compound concentration: 100 uM; IPBC concentration: 200 ng/ml; 40 h
Counter-ions that a name gives are not always drawn. Hit rate of the full screen: of about 1,300 compounds, about 130 (10%) showed an effect of 50% or more. What follows is part of a selection rich in strong results, with near analogues and random picks from the rest.
measure: growth yield (%)

CNCCc1ccccn1 [Betahistine mesylate] + CCCCNC(=O)OCC#CI [3-iodo-2-propynyl butylcarbamate (IPBC)] = 88
CC(C(=O)O)c1cccc(C(=O)c2ccccc2)c1 (stereo unspecified) [Ketoprofen] + CCCCNC(=O)OCC#CI [3-iodo-2-propynyl butylcarbamate (IPBC)] = 74
C[C@]12CC[C@H]3[C@@H](CCC4=CC(=O)CC[C@@H]43)[C@@H]1CC[C@@H]2O [Nandrolone] + CCCCNC(=O)OCC#CI [3-iodo-2-propynyl butylcarbamate (IPBC)] = 61.2
O=C(O)COC(=O)Cc1ccccc1Nc1c(Cl)cccc1Cl [Aceclofenac] + CCCCNC(=O)OCC#CI [3-iodo-2-propynyl butylcarbamate (IPBC)] = 79.9
C[C@]12C=CC(=O)C=C1CC[C@@H]1[C@@H]2C(=O)C[C@@]2(C)[C@H]1CC[C@]2(O)C(=O)CO [Prednisone] + CCCCNC(=O)OCC#CI [3-iodo-2-propynyl butylcarbamate (IPBC)] = 90.9
CN1[C@@H]2C[C@@H](OC(=O)[C@H](CO)c3ccccc3)C[C@H]1[C@@H]1O[C@@H]12 [Scopolamine hydrochloride] + CCCCNC(=O)OCC#CI [3-iodo-2-propynyl butylcarbamate (IPBC)] = 94.4
Cc1ccc(Cl)c(Nc2ccccc2C(=O)O)c1Cl [Meclofenamic acid sodium salt monohydrate] + CCCCNC(=O)OCC#CI [3-iodo-2-propynyl butylcarbamate (IPBC)] = 71.3
CC(C(=O)O)c1cccc(Oc2ccccc2)c1 (stereo unspecified) [Fenoprofen calcium salt dihydrate] + CCCCNC(=O)OCC#CI [3-iodo-2-propynyl butylcarbamate (IPBC)] = 73.9
NCC(CC(=O)O)c1ccc(Cl)cc1 (racemic) [Baclofen (R,S)] + CCCCNC(=O)OCC#CI [3-iodo-2-propynyl butylcarbamate (IPBC)] = 96.1
COc1ncnc(NS(=O)(=O)c2ccc(N)cc2)c1OC [Sulfadoxine] + CCCCNC(=O)OCC#CI [3-iodo-2-propynyl butylcarbamate (IPBC)] = 72.6
CC(C(=O)O)c1ccc(-c2ccccc2)c(F)c1 (stereo unspecified) [Flurbiprofen] + CCCCNC(=O)OCC#CI [3-iodo-2-propynyl butylcarbamate (IPBC)] = 43.4

----------
- Tested on: Trichoderma virens ATCC 9645
- experiment_summary: growth yield (OD600) with compound + IPBC relative to untreated control; higher = less growth inhibition
- condition_notes: compound concentration: 100 uM; IPBC concentration: 200 ng/ml; 40 h
Structures can show the parent of a compound that is named as a salt. The whole screen tested about 1,300 compounds, of which about 130 (10%) showed an effect of 50% or more. What follows is part of a selection rich in strong results, with near analogues and random picks from the rest.
measure: growth yield (%)

CCN(CC)C(=S)SSC(=S)N(CC)CC [Disulfiram] + CCCCNC(=O)OCC#CI [3-iodo-2-propynyl butylcarbamate (IPBC)] = 33.7
CN[C@@H]1[C@H](O[C@H]2[C@H](O[C@H]3[C@H](O)[C@@H](O)[C@H](N=C(N)N)[C@@H](O)[C@@H]3N=C(N)N)O[C@@H](C)[C@]2(O)C=O)O[C@@H](CO)[C@H](O)[C@H]1O [Streptomycin sulfate] + CCCCNC(=O)OCC#CI [3-iodo-2-propynyl butylcarbamate (IPBC)] = 101
C=C[C@H]1CN2CC[C@H]1C[C@@H]2[C@@H](O)c1ccnc2ccc(OC)cc12 [Quinidine hydrochloride monohydrate] + CCCCNC(=O)OCC#CI [3-iodo-2-propynyl butylcarbamate (IPBC)] = 77.7
